The measured values listed here are drawn from patent US7329652B2.

- target of assay: UniProt P52333
- Sequence (P52333 1-1124): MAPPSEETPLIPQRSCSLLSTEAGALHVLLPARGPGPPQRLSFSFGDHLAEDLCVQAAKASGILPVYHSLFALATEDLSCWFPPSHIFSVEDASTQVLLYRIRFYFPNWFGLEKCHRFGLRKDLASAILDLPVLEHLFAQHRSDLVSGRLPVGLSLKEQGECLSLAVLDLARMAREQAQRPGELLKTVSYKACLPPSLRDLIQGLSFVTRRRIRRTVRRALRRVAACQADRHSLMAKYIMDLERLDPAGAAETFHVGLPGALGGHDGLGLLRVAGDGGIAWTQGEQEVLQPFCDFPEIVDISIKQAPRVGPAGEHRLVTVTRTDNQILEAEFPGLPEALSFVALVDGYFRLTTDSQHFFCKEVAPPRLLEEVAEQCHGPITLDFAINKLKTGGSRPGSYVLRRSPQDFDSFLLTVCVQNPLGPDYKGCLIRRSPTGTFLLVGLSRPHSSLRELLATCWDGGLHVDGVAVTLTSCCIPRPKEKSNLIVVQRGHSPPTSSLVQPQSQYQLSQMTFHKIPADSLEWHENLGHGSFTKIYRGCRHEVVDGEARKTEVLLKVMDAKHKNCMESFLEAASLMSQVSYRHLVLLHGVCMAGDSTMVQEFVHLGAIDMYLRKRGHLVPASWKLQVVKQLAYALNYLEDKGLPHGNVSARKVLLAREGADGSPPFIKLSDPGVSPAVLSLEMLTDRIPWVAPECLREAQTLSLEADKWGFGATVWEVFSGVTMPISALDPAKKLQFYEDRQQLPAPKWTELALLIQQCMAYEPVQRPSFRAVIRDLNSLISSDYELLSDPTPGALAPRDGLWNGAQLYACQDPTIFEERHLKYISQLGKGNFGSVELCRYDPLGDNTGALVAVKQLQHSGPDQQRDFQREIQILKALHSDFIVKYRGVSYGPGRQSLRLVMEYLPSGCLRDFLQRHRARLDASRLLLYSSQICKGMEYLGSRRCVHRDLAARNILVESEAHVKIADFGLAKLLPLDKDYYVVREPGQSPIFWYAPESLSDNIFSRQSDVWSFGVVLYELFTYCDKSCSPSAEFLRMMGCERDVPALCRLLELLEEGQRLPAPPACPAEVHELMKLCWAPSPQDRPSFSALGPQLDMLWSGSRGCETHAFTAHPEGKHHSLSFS
- assay procedure: JAK3 inhibition assay (radiometric 33P filter assay)
- Type: biochemical
- applied conditions: 1 μM poly(Glu)4Tyr, 5 μM ATP, 1 nM JAK3, 25° C.; read-out: JAK3 inhibition data (Ki)
measurement name: Ki

[in] Quick check: Ki of CC(=O)N1[C@H](C)CN(c2cc(-n3nc(Nc4ccc(N5CCN(C(=O)OCC(C)C)CC5)cc4)nc3N)ncn2)C[C@@H]1C ?
[out] < 50 nM

[in] Follow-up entry: COC(=O)N1CCN(c2ccc(Nc3nc(N)n(-c4cc(N5CCCN(C(C)=O)CC5)ncn4)n3)cc2)CC1
[out] < 50 nM

[in] Follow-up entry: CCOC(=O)N1CCN(c2ccc(Nc3nc(N)n(-c4ccnc(N5C[C@@H](C)N(C(C)=O)[C@@H](C)C5)c4)n3)cc2)CC1
[out] < 50 nM

---

- target of assay: JAK-2 enzyme (Homo sapiens)
- assay procedure: JAK2 inhibition assay (radiometric 33P filter assay)
- Format: biochemical
- applied conditions: 15 μM poly(Glu)4Tyr, 12 μM ATP; read-out: JAK2 inhibition data (Ki)
pKi: −log10 of the molar value.
This section presents compounds with their documented pKi values.

# compound, pKi
rows = [
    ("CCOC(=O)N1CCN(c2ccc(Nc3nc(N)n(-c4cc(NC)ncn4)n3)cc2)CC1 [Compound 167]", "> 7.30"),
    ("Nc1nc(Nc2ccc(N3CCOCC3)cc2)nn1-c1cc(N2CCNC(=O)CC2)ncn1 [Compound 3]", "> 7.30"),
    ("Nc1nc(Nc2ccc(N3CCOCC3)cc2)nn1-c1ccnc(N2CC3CCC(CC3)C2)c1 [Compound 18]", "> 7.30"),
]

[in] Report pKi for COC(=O)N1CCCN(c2cc(-n3nc(Nc4ccc(N5CCN(C(=O)OC(C)C)CC5)cc4)nc3N)ccn2)CC1 [Compound 156] please.
[out] 6.30 to 7.30

[in] Now the same for CC(=O)N1CCCN(c2cc(-n3nc(Nc4ccc(NC(=O)c5ccco5)cc4)nc3N)ncn2)CC1 [Compound 30]
[out] > 7.30

[in] Now the same for CC(=O)N1CCCN(c2cc(-n3nc(Nc4ccc(N5CCNCC5)cc4)nc3N)ncn2)CC1 [Compound 42]
[out] > 7.30

[in] Also Nc1nc(Nc2ccc(N3CCOCC3)cc2)nn1-c1ccnc(N2CCCOCC2)c1 [Compound 14] , if possible.
[out] 6.30 to 7.30

[in] Follow-up item: CC(=O)N1CCCN(c2cc(-n3nc(Nc4ccc(N)cc4)nc3N)ncn2)CC1 [Compound 20]
[out] > 7.30

---

- target of assay: JAK-2 enzyme (Homo sapiens, UniProt O60674)
- Sequence (O60674 whole entry, species assumed): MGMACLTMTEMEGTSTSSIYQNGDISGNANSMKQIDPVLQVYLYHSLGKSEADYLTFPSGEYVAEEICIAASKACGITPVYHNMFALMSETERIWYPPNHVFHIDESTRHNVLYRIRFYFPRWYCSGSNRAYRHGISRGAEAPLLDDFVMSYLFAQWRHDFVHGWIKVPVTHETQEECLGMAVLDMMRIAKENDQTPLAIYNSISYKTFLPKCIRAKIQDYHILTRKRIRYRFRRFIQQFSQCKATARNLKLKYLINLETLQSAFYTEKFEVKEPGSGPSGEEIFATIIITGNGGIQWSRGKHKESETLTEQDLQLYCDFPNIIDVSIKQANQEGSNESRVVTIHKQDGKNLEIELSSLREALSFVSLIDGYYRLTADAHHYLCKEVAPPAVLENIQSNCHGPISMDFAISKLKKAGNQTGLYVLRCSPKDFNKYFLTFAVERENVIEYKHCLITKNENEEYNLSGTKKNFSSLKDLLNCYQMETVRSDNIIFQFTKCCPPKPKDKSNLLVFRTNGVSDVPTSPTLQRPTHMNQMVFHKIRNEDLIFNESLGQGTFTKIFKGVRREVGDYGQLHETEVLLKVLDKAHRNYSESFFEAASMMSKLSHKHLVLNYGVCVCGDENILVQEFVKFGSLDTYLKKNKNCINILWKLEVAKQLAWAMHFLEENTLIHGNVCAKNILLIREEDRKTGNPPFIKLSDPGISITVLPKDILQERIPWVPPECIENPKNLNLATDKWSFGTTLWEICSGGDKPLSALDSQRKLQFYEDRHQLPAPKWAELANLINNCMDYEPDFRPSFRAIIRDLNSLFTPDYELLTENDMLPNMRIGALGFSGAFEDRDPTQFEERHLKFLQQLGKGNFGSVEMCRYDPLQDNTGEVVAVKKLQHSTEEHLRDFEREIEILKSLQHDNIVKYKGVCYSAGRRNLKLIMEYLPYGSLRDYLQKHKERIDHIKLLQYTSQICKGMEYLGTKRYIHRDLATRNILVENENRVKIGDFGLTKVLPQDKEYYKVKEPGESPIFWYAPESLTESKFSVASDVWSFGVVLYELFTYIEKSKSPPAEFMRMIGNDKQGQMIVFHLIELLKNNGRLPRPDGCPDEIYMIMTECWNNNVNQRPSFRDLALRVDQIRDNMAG
- assay procedure: JAK2 inhibition assay (radiometric 33P filter assay)
- Type: biochemical
- applied conditions: 15 μM poly(Glu)4Tyr, 12 μM ATP; read-out: JAK2 inhibition data (Ki)
pKi: −log10 of the molar value.
measurement name: pKi

# compound, pKi
rows = [
    ("CC(=O)N1CCCN(c2cc(-n3nc(Nc4ccc(NC(=O)NC(C)(C)C)cc4)nc3N)ncn2)CC1", "> 7.30"),
    ("CCCOC(=O)N1CCN(c2ccc(Nc3nc(N)n(-c4ccnc(N5CCCN(S(=O)(=O)CCC)CC5)c4)n3)cc2)CC1", "6.30 to 7.30"),
    ("CC(=O)N1[C@H](C)CN(c2cc(-n3nc(Nc4ccc(NC(=O)CCC(C)C)cc4)nc3N)ccn2)C[C@@H]1C", "> 7.30"),
    ("CC(=O)N1[C@H](C)CN(c2cc(-n3nc(Nc4ccc(NC(=O)OCC(C)C)cc4)nc3N)ncn2)C[C@@H]1C", "> 7.30"),
    ("N#CCC(=O)N1CCCN(c2cc(-n3nc(Nc4ccc(N5CCNCC5)cc4)nc3N)ncn2)CC1", "> 7.30"),
]

[in] Report pKi for COC(=O)N1CCCN(c2cc(-n3nc(Nc4ccc(N5CCOCC5)cc4)nc3N)ncn2)CC1 please.
[out] > 7.30

---

Each record here notes measured Ki.
- target of assay: JAK-2 enzyme (Homo sapiens)
- assay procedure: JAK2 inhibition assay (radiometric 33P filter assay)
- Format: biochemical
- applied conditions: 15 μM poly(Glu)4Tyr, 12 μM ATP; read-out: JAK2 inhibition data (Ki)

# compound, result value
rows = [
    ("CC(=O)N1CCCN(c2cc(-n3nc(Nc4ccc(N(C)C(=O)OC(C)(C)C)cc4)nc3N)ncn2)CC1 [Compound 115]", "< 50 nM"),
]

[in] Which value of Ki has been reported for CCOC(=O)Nc1ccc(Nc2nc(N)n(-c3cc(N4CCCN(C(C)=O)CC4)ncn3)n2)cc1 [Compound 91] in the records?
[out] < 50 nM

[in] Follow-up item: CCOC(=O)N1CCCN(c2cc(-n3nc(Nc4ccc(N5CCN(S(=O)(=O)CC)CC5)cc4)nc3N)ccn2)CC1 [Compound 153]
[out] 50 to 500 nM

[in] Now try CC(=O)N1[C@H](C)CN(c2cc(-n3nc(Nc4ccc(N5CCN(C(=O)OCC(C)C)CC5)cc4)nc3N)ncn2)C[C@@H]1C [Compound 58] .
[out] < 50 nM

---

- target of assay: JAK3 (Homo sapiens)
- Sequence (P52333 1-1124): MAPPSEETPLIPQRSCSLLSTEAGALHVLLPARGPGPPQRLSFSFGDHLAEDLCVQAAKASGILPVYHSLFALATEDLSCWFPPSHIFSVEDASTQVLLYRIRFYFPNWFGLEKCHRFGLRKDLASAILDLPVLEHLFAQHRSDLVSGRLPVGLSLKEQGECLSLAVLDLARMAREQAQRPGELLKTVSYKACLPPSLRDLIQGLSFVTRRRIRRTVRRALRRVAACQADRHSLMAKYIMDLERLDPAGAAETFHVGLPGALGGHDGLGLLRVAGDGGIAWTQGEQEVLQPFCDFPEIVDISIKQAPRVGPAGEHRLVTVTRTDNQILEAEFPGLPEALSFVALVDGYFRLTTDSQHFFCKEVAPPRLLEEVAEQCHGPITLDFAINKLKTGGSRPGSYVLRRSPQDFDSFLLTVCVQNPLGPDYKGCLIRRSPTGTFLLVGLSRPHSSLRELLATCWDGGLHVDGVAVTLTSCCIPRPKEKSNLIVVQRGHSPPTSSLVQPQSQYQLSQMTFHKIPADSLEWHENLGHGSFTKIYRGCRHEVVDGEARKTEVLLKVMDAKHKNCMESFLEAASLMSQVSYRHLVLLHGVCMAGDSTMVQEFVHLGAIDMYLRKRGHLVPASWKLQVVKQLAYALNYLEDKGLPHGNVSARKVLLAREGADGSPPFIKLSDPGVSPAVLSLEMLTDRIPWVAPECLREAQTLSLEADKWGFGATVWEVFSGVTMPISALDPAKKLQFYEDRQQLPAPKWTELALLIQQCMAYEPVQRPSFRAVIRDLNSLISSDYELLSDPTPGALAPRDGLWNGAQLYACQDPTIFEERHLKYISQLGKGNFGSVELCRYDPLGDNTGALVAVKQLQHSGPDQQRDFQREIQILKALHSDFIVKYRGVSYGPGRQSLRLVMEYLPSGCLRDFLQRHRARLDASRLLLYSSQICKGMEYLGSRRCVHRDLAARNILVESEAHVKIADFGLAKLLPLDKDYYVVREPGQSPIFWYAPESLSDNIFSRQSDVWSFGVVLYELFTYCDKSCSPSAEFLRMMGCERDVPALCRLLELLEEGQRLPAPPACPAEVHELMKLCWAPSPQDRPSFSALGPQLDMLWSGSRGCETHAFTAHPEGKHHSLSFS
- assay procedure: JAK3 inhibition assay (radiometric 33P filter assay)
- Format: biochemical
- applied conditions: 1 μM poly(Glu)4Tyr, 5 μM ATP, 1 nM JAK3, 25° C.; read-out: JAK3 inhibition data (Ki)
- Protocol: Compounds were screened for their ability to inhibit JAK using the assay shown below. Reactions were carried out in a kinase buffer containing 100 mM HEPES (pH 7.4), 1 mM DTT, 10 mM MgCl2, 25 mM NaCl, and 0.01% BSA. […] To each well of a 96 well polycarbonate plate was added 1.5 μl of a candidate JAK3 inhibitor along with 50 μl of kinase buffer containing 2 μM poly(Glu)4Tyr and 10 μM ATP. […] After washing, 60 μl of scintillation fluid was added and ^33P incorporation detected on a Perkin Elmer TopCount.
pKi: −log10 of the molar value.
measurement name: pKi

In the examples that follow, each entry is paired with its recorded pKi.
# smiles notation, pKi
measured = [
    ("CCCOC(=O)N1CCN(c2ccc(Nc3nc(N)n(-c4ccnc(N5CCCN(C(=O)OC(C)C)CC5)c4)n3)cc2)CC1", "6.30 to 7.30"),
    ("CCOC(=O)N1CCN(c2ccc(Nc3nc(N)n(-c4ccnc(N5CCCN(C(=O)OC(C)C)CC5)c4)n3)cc2)CC1", "6.30 to 7.30"),
    ("CCCOC(=O)N1CCN(c2ccc(Nc3nc(N)n(-c4cc(N5C[C@@H](C)N(C(C)=O)[C@@H](C)C5)ncn4)n3)cc2)CC1", "> 7.30"),
    ("CC(=O)N1CCCN(c2cc(-n3nc(Nc4ccc(NC(=O)OCC(C)(C)C)cc4)nc3N)ncn2)CC1", "> 7.30"),
]

[in] Requested field: pKi. Item: Nc1nc(Nc2ccc(N3CCOCC3)cc2)nn1-c1cc(N2CCCCCC2)ncn1
[out] > 7.30

[in] Also CC(=O)N1CCCN(c2cc(-n3nc(Nc4ccc(N5CCOCC5)cc4)nc3N)ncn2)CC1 ?
[out] > 7.30

[in] Same question for CC(=O)N1[C@H](C)CN(c2cc(-n3nc(Nc4ccc(NC(=O)O[C@H]5C[C@H](C)CC[C@H]5C(C)C)cc4)nc3N)ncn2)C[C@@H]1C please.
[out] 6.30 to 7.30

[in] Another compound to look at: CC(=O)N1[C@H](C)CN(c2cc(-n3nc(Nc4ccc(N5CCN(C(=O)NC6CCCCC6)CC5)cc4)nc3N)ncn2)C[C@@H]1C
[out] > 7.30

[in] Queued: CCCOC(=O)N1CCN(c2ccc(Nc3nc(N)n(-c4ccnc(N5CCCN(S(=O)(=O)C(C)C)CC5)c4)n3)cc2)CC1
[out] 6.30 to 7.30
